The origin of these recorded values is patent US10052320B2.

biological target: FGFR4 (h) (Homo sapiens, UniProt P22455); experiment: FGFR4 (enzymatic assay), TR-FRET; assay type: biochemical; settings: read-out: FGFR 4 pIC50 (converted)
Sequence (P22455 22-802): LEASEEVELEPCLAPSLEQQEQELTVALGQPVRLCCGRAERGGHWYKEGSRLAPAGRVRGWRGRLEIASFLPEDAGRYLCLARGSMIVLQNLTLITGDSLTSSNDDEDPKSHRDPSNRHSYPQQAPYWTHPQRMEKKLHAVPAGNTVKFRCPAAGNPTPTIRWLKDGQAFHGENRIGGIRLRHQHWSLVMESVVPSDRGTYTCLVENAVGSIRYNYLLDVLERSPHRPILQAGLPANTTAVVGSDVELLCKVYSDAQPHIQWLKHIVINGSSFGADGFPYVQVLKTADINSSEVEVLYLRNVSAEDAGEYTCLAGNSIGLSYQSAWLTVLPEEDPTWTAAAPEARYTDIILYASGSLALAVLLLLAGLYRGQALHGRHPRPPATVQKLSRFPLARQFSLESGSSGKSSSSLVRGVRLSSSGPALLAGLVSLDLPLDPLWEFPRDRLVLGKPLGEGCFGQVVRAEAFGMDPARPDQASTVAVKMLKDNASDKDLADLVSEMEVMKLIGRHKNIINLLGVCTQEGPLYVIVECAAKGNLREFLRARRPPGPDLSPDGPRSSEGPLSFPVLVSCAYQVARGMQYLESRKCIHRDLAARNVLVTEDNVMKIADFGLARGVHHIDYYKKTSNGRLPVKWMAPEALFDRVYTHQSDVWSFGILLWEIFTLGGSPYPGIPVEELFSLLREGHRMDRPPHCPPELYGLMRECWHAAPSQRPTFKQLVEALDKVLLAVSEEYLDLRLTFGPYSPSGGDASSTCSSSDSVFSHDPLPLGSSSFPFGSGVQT
Each record's class is read off its IC50 using these ranges: class 1 = under 50 nM, class 2 = from 50 nM up to 300 nM, class 3 = 300 nM and over

cpd-smiles | classification
COc1cc(OC)cc(N(CCCNCC(F)(F)F)c2ccc3ncc(-c4cnc(OC)nc4)nc3c2)c1 | class 3
COc1cc(OC)cc(N(CCNC(C)C)c2ccc3ncc(NCC4CCNCC4)nc3c2)c1 | class 3
COc1cc(OC)cc(N(CC2CC2)c2ccc3ncc(-c4nccn4C)nc3c2)c1 | class 3
COc1cc(OC)cc(N(CCCO)c2ccc3ncc(-c4ccnc(F)c4)nc3c2)c1 | class 2
COc1cc(OC)cc(N(CC2CC2)c2ccc3ncc(-n4ccnc4C)nc3c2)c1 | class 3
COc1cc(OC)cc(N(CC2CC2)c2ccc3ncc(-c4nnc(C)o4)nc3c2)c1 | class 3
COc1cc(OC)cc(N(CCNC(C)C)c2ccc3ncc(-c4ccc(N)nc4)nc3c2)c1 | class 1
COc1cc(OC)cc(N(CCCNC(C)C)c2ccc3ncc(-c4ccnc(N)c4)nc3c2)c1 | class 1
COc1cc(OC)cc(N(CCCNCC(F)(F)F)c2ccc3ncc(-c4ccnc(F)c4)nc3c2)c1 | class 3
COc1cc(OC)cc(N(CC2CC2)c2ccc3ncc(-c4nnnn4C)nc3c2)c1 | class 3
COc1cc(OC)cc(N(CCCO)c2ccc3ncc(-c4ccnc(C(=O)NCCCCN)c4)nc3c2)c1 | class 2
COc1cc(OC)cc(N(CC2CC2)c2ccc3ncc(Nc4nccs4)nc3c2)c1 | class 3
COc1cc(OC)cc(N(CCO)c2ccc3ncc(-c4ccccc4)nc3c2)c1 | class 1
CNC(=O)c1cc(-c2cnc3ccc(N(CCNC(C)C)c4cc(OC)cc(OC)c4)cc3n2)ccn1 | class 1
COc1cc(OC)cc(N(CCN2CCOCC2)c2ccc3ncc(-c4ccc(N)nc4)nc3c2)c1 | class 2
COc1cc(OC)cc(N(CCO)c2ccc3ncc(-c4ccnc(C(=O)NCCCCCO)c4)nc3c2)c1 | class 2
